Recorded IC50 by entry
Study Target: Recombinant human BRD4 containing dual bromodomains (BRD4-BD12 (1-477)) (Homo sapiens, UniProt O60885)
Construct: Recombinant human BRD4 containing dual bromodomains (BRD4-BD12 (1-477))
Measurement Protocol: BRD4 Alphascreen binding assay
Experimental Endpoint: IC50

>>> result("CCOc1cc(O)c(C(=O)O)cc1-c1cn(-c2ccc(F)cc2F)c2ncc(-c3c(C)noc3C)cc12 [P-0249]")
"8 to 1000 µM"
>>> result("CCOc1nc(C(=O)O)c(Cl)cc1-c1cn(C2CCOCC2)c2ncc(-c3c(C)noc3C)cc12 [P-0398]")
"8 to 1000 µM"
>>> result("Cc1noc(C)c1-c1cnc2c(c1)c(-c1cc(C(=O)O)ccc1OC(F)(F)F)cn2-c1ccc(F)cc1F [P-0268]")
"1 to 8 µM"
>>> result("Cc1noc(C)c1-c1cnc2c(c1)c(-c1ccc(C(=O)O)cc1OC1CCC1)cn2-c1ncccc1C#N [P-0334]")
"8 to 1000 µM"
>>> result("Cc1noc(C)c1-c1cnc2c(c1)c(-c1cccc(C(=O)O)c1)cn2Cc1cccc(F)c1 [P-0060]")
"1 to 8 µM"

###

Study Target: Recombinant human BRD4 containing dual bromodomains (BRD4-BD12 (1-477)) (Homo sapiens)
Construct: Recombinant human BRD4 containing dual bromodomains (BRD4-BD12 (1-477))
Measurement Protocol: BRD4 Alphascreen binding assay
Listed below: IC50 values for each entry.
Experimental Endpoint: IC50

>>> result("COc1cc(C(=O)O)ncc1-c1cn(C(C2CC2)C2CC2)c2ncc(-c3c(C)noc3C)cc12")
"1 to 8 µM"
>>> result("Cc1noc(C)c1-c1cnc2c(c1)c(-c1ccc(C(=O)O)cc1OC(F)(F)F)cn2-c1ccc(C2CC2)nc1")
"1 to 8 µM"
>>> result("Cc1noc(C)c1-c1cnc2c(c1)c(-c1cccc(C(=O)O)c1)cn2CC1CC(F)(F)C1")
"8 to 1000 µM"
>>> result("Cc1noc(C)c1-c1cnc2c(c1)c(-c1ccc(C(=O)O)cc1OC(F)(F)F)cn2C1CCC1")
"0.0001 to 1 µM"
>>> result("Cc1noc(C)c1-c1cnc2c(-c3ccccc3)cn(-c3c(Cl)cccc3C#N)c2c1")
"1 to 8 µM"
>>> result("COc1ccc(C(=O)O)cc1-c1c(C(F)(F)F)n([C@@H](C)c2ccccn2)c2cc(-c3c(C)noc3C)cnc12")
"8 to 1000 µM"
>>> result("Cc1noc(C)c1-c1cnc2c(c1)c(-c1ccc(C(=O)O)cc1OC(F)(F)F)cn2-c1ncccc1C#N")
"1 to 8 µM"
>>> result("CCOc1cc(C(=O)O)cc(OCC)c1-n1cc(-c2cnn(CC(=O)N(C)C)c2)c2ncc(-c3c(C)noc3C)cc21")
"1 to 8 µM"
>>> result("Cc1noc(C)c1-c1cnc2c(c1)c(-c1c(Cl)cc(C(=O)O)cc1OC1CCC1)cn2[C@H]1CCOC1")
"8 to 1000 µM"
>>> result("Cc1noc(C)c1-c1cnc2c(c1)c(-c1ccc(C(=O)O)cc1OC1CCC1)cn2-c1cnn(C(F)F)c1C")
"8 to 1000 µM"
>>> result("Cc1noc(C)c1-c1cnc2c(-c3ccc(C(=O)O)cc3)c(C(F)(F)F)n([C@@H](C)c3ccccn3)c2c1")
"0.0001 to 1 µM"
>>> result("CCOc1cc(C(=O)O)cc(OCC)c1-n1cc(-c2ccc(OC)cc2F)c2ncc(-c3c(C)noc3C)cc21")
"1 to 8 µM"
>>> result("Cc1nn(C(F)F)cc1-n1cc(-c2ccc(C(=O)O)cc2OC2CCC2)c2cc(-c3c(C)noc3C)cnc21")
"8 to 1000 µM"
>>> result("Cc1noc(C)c1-c1cnc2c(c1)c(-c1ccnc(C(=O)O)c1)cn2C(c1ccccn1)C1CCC1 (centres unmarked)")
"1 to 8 µM"
